The reported measurements were obtained from patent US20220402995A1.

- MEASURED TARGET: T1, VLP2 (virus-like particles of AAV2) (AAV2, UniProt P03135 1-735; P03135 1-598; P03135 1-533)
- T1 construct: Empty AAV2 capsid; background says about 60 protein molecules, VP1:VP2:VP3 = 1:1:10; Immobilised on the ELISA plate
- T1 sequence (P03135 whole entry, chain 1 of 3): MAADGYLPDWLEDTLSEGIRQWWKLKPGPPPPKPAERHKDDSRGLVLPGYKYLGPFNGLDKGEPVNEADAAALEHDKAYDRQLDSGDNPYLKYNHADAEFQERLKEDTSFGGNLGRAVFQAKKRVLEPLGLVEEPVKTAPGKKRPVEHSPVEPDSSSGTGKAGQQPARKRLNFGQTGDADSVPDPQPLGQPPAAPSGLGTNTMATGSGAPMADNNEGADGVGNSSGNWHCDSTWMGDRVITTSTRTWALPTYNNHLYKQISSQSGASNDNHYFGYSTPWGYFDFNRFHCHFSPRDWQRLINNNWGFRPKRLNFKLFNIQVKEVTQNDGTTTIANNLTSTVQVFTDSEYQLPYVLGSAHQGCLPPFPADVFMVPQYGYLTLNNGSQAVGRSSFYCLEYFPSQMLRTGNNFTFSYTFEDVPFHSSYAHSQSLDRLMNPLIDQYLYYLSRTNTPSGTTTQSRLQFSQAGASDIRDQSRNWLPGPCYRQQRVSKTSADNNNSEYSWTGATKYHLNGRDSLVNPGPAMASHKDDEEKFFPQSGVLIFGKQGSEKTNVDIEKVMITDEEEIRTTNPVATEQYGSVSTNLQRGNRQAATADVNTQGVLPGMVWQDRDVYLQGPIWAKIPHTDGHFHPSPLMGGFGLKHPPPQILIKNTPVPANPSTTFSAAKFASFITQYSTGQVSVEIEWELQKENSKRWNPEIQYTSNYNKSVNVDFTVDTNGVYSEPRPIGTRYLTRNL
- T1 sequence (P03135 139-735, tags left off, chain 2 of 3): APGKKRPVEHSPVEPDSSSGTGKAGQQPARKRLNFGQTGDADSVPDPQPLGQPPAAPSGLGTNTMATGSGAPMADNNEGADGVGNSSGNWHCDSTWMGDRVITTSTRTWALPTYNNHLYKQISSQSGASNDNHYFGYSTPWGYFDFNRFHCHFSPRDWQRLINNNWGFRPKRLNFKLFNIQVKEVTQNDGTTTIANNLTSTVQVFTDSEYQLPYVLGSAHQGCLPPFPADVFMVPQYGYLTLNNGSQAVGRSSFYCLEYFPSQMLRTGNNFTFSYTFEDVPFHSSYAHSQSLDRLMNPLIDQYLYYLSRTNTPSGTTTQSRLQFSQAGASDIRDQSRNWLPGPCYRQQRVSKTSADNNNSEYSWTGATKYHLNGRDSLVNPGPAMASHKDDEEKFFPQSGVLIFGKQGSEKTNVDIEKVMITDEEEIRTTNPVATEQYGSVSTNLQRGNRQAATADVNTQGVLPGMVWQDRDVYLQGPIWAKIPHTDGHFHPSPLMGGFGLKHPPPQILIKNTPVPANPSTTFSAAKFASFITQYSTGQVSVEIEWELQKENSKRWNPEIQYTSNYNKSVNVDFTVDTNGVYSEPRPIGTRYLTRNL
- T1 sequence (P03135 203-735, chain 3 of 3): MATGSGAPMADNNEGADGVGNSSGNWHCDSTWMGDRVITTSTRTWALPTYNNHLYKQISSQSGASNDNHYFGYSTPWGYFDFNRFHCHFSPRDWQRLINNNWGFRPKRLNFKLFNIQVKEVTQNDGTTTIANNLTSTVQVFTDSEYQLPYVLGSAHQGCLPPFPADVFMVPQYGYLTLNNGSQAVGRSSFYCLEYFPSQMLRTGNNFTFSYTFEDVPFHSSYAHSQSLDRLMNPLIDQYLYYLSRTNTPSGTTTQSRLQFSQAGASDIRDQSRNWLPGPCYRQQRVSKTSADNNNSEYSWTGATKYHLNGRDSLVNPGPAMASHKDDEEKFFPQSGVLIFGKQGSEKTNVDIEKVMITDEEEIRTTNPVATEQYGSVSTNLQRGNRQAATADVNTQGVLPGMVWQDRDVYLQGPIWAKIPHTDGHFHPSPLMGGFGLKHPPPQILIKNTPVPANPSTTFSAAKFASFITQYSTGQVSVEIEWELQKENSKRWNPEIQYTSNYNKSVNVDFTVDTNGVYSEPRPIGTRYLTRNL
- ASSAY DETAILS: ELISA on VLP2; binding after 43°C 15 min / untreated
RECORDED ENDPOINT: Residual activity [%] (%)
Answers are plain numbers, in %.

{"BINDER": "AAV-binding protein No. 44 (Gln327Arg, Lys338Arg, Leu348Pro) (receptor) MGSAGESVQITLPKNEVRLNAYVLQEPPRGETYTYDWQPITHPRDYSGEMEGKHSQILKLSKLTPGLYEFKVIVEGQNAHGEGYVNVTVKPEPRKNRPPIAIVSPQFQEISLPTTSTVIDGSQSTDDDKIVQYHWEELKGPLREEKISEDTAILKLSKLVPGNYTFSLTVVDSDGATNSTTANLTVNKAVDHHHHHH", "Residual activity [%], %": 76.1}
{"BINDER": "AAV-binding protein No. 47 (Asn329Tyr, Tyr377Cys, Arg406Ser) (receptor) MGSAGESVQITLPKNEVQLYAYVLQEPPKGETYTYDWQLITHPRDYSGEMEGKHSQILKLSKLTPGLCEFKVIVEGQNAHGEGYVNVTVKPEPRKNSPPIAIVSPQFQEISLPTTSTVIDGSQSTDDDKIVQYHWEELKGPLREEKISEDTAILKLSKLVPGNYTFSLTVVDSDGATNSTTANLTVNKAVDHHHHHH", "Residual activity [%], %": 92.7}
{"BINDER": "AAV-binding protein No. 51 (Leu333Pro, Pro337Leu, Thr350Met) (receptor) MGSAGESVQITLPKNEVQLNAYVPQEPLKGETYTYDWQLIMHPRDYSGEMEGKHSQILKLSKLTPGLYEFKVIVEGQNAHGEGYVNVTVKPEPRKNRPPIAIVSPQFQEISLPTTSTVIDGSQSTDDDKIVQYHWEELKGPLREEKISEDTAILKLSKLVPGNYTFSLTVVDSDGATNSTTANLTVNKAVDHHHHHH", "Residual activity [%], %": 66.7}
{"BINDER": "AAV-binding protein No. 15 (Leu367Pro) (receptor) MGSAGESVQITLPKNEVQLNAYVLQEPPKGETYTYDWQLITHPRDYSGEMEGKHSQIPKLSKLTPGLYEFKVIVEGQNAHGEGYVNVTVKPEPRKNRPPIAIVSPQFQEISLPTTSTVIDGSQSTDDDKIVQYHWEELKGPLREEKISEDTAILKLSKLVPGNYTFSLTVVDSDGATNSTTANLTVNKAVDHHHHHH", "Residual activity [%], %": 56.9}
{"BINDER": "AAV-binding protein No. 39 (Ile366Thr, Gln441Leu) (receptor) MGSAGESVQITLPKNEVQLNAYVLQEPPKGETYTYDWQLITHPRDYSGEMEGKHSQTLKLSKLTPGLYEFKVIVEGQNAHGEGYVNVTVKPEPRKNRPPIAIVSPQFQEISLPTTSTVIDGSQSTDDDKIVLYHWEELKGPLREEKISEDTAILKLSKLVPGNYTFSLTVVDSDGATNSTTANLTVNKAVDHHHHHH", "Residual activity [%], %": 65.5}

Please supply Residual activity [%] for each of the following items, keeping them in order.
1. AAV-binding protein No. 45 (Asn329Asp, Tyr342His, Tyr355Cys) (receptor) MGSAGESVQITLPKNEVQLDAYVLQEPPKGETHTYDWQLITHPRDCSGEMEGKHSQILKLSKLTPGLYEFKVIVEGQNAHGEGYVNVTVKPEPRKNRPPIAIVSPQFQEISLPTTSTVIDGSQSTDDDKIVQYHWEELKGPLREEKISEDTAILKLSKLVPGNYTFSLTVVDSDGATNSTTANLTVNKAVDHHHHHH
2. AAV-binding protein No. 33 (Tyr344His, His363Arg) (receptor) MGSAGESVQITLPKNEVQLNAYVLQEPPKGETYTHDWQLITHPRDYSGEMEGKRSQILKLSKLTPGLYEFKVIVEGQNAHGEGYVNVTVKPEPRKNRPPIAIVSPQFQEISLPTTSTVIDGSQSTDDDKIVQYHWEELKGPLREEKISEDTAILKLSKLVPGNYTFSLTVVDSDGATNSTTANLTVNKAVDHHHHHH
3. AAV-binding protein No. 6 (Trp346Leu) (receptor) MGSAGESVQITLPKNEVQLNAYVLQEPPKGETYTYDLQLITHPRDYSGEMEGKHSQILKLSKLTPGLYEFKVIVEGQNAHGEGYVNVTVKPEPRKNRPPIAIVSPQFQEISLPTTSTVIDGSQSTDDDKIVQYHWEELKGPLREEKISEDTAILKLSKLVPGNYTFSLTVVDSDGATNSTTANLTVNKAVDHHHHHH
4. AAV-binding protein No. 40 (Phe379Ser, Lys455Arg) (receptor) MGSAGESVQITLPKNEVQLNAYVLQEPPKGETYTYDWQLITHPRDYSGEMEGKHSQILKLSKLTPGLYESKVIVEGQNAHGEGYVNVTVKPEPRKNRPPIAIVSPQFQEISLPTTSTVIDGSQSTDDDKIVQYHWEELKGPLREERISEDTAILKLSKLVPGNYTFSLTVVDSDGATNSTTANLTVNKAVDHHHHHH
5. AAV-binding protein No. 29 (Leu333Val, Tyr342Cys) (receptor) MGSAGESVQITLPKNEVQLNAYVVQEPPKGETCTYDWQLITHPRDYSGEMEGKHSQILKLSKLTPGLYEFKVIVEGQNAHGEGYVNVTVKPEPRKNRPPIAIVSPQFQEISLPTTSTVIDGSQSTDDDKIVQYHWEELKGPLREEKISEDTAILKLSKLVPGNYTFSLTVVDSDGATNSTTANLTVNKAVDHHHHHH
6. AAV-binding protein No. 41 (Glu453Gly, Ser476Arg) (receptor) MGSAGESVQITLPKNEVQLNAYVLQEPPKGETYTYDWQLITHPRDYSGEMEGKHSQILKLSKLTPGLYEFKVIVEGQNAHGEGYVNVTVKPEPRKNRPPIAIVSPQFQEISLPTTSTVIDGSQSTDDDKIVQYHWEELKGPLRGEKISEDTAILKLSKLVPGNYTFRLTVVDSDGATNSTTANLTVNKAVDHHHHHH

Reply text:
1. 97.2
2. 82.2
3. 85.7
4. 77.4
5. 91.8
6. 56.1
